# Test system: HCV replicon (HCV 1b-377-neo replicon cells, Huh7)
# Experiment: HCV replicon cell-based FRET assay
# Measurement Parameters: Hepatitis C virus, Huh-7
# Description: HCV Replion assays were utilized in the present invention, and were prepared, conducted and validated as follows: […] Huh7 cells, constitutively expressing the HCV replicon, were grown in Dulbecco's Modified Eagle Media (DMEM) containing 10% Fetal calf serum (FCS) and 1 mg/ml G418 (Gibco-BRL). […] After 4 days, cells were first assessed for cytotoxicity using alamar Blue (Trek Diagnotstic Systems) for a CC50 reading. […]
Measure Name: EC50

Compound	Target Entity	EC50
COc1ccc2c(OC3CC4C(=O)NC5(C(=O)NS(=O)(=O)C6CC6)CC5C=CCCCOCC(NC(=O)NC5CCCC5)C(=O)N4C3)nccc2c1 (centres unmarked) [Compound 87]	HCV replicon (HCV 1b-377-neo replicon cells, Huh7)	< 50 nM
COc1ccc2c(OC3CC4C(=O)NC5(C(=O)NS(=O)(=O)C6(C)CC6)CC5C=CCCCOC(C)C(NC(=O)NC5CCCC5)C(=O)N4C3)nccc2c1 (centres unmarked) [Compound 69]	HCV replicon (HCV 1b-377-neo replicon cells, Huh7)	< 50 nM
COc1ccc2c(OC3CC4C(=O)NC5(C(=O)NS(=O)(=O)C6CC6)CC5C=CCCCOC(C)C(NC(=O)NC5CCCC5)C(=O)N4C3)nccc2c1 (centres unmarked) [Compound 65]	HCV replicon (HCV 1b-377-neo replicon cells, Huh7)	< 50 nM
CC(C)OC(=O)N[C@H]1CCCCC/C=C\[C@@H]2C[C@@]2(C(=O)NS(=O)(=O)C2CC2)NC(=O)[C@@H]2C[C@@H](Oc3nccc4ccccc34)CN2C1=O [Compound 16]	HCV replicon (HCV 1b-377-neo replicon cells, Huh7)	< 50 nM
CCC1(S(=O)(=O)NC(=O)C23CC2C=CCOCCCC(NC(=O)NC2CCCC2)C(=O)N2CC(Oc4nccc5cc(OC)ccc45)CC2C(=O)N3)CC1 (centres unmarked) [Compound 38]	HCV replicon (HCV 1b-377-neo replicon cells, Huh7)	< 50 nM
COc1ccc2c(OC3CC4C(=O)NC5(C(=O)NS(=O)(=O)C6CC6)CC5C=CCOCCCC(NC(=O)OC(C)C)C(=O)N4C3)nc(-c3ccccc3)cc2c1 (centres unmarked) [Compound 98]	HCV replicon (HCV 1b-377-neo replicon cells, Huh7)	< 50 nM

Data request, read-out EC50, for COc1ccc2c(OC3CC4C(=O)NC5(C(=O)NS(=O)(=O)C6CC6)CC5C=CCCCSC(C)(C)C(NC(=O)NC5CCCC5)C(=O)N4C3)nccc2c1 (centres unmarked) [Compound 82]
50 to 500 nM

Next up: CC(C)(C)OC(=O)NC1CCCCCC=CC2CC2(C(=O)NS(=O)(=O)C2CC2)NC(=O)C2CC(Oc3nccc4c(Cl)cccc34)CN2C1=O (centres unmarked) [Compound 130]
< 50 nM

Next up: COc1ccc2c(OC3CC4C(=O)NC5(C(=O)NS(=O)(=O)C6(C)CC6)CC5C=CCCCOC(C)C(NC(=O)OC(C)C)C(=O)N4C3)nccc2c1 (centres unmarked) [Compound 68]
50 to 500 nM

Next up: CCC1(S(=O)(=O)NC(=O)C23CC2C=CCCCSCC(NC(=O)OCC(C)(C)C)C(=O)N2CC(Oc4nccc5cc(OC)ccc45)CC2C(=O)N3)CC1 (centres unmarked) [Compound 45]
< 50 nM

Next up: CN1CCC/C=C\[C@@H]2C[C@@]2(C(=O)NS(=O)(=O)C2CC2)NC(=O)[C@@H]2C[C@@H](Oc3nccc4ccccc34)CN2C(=O)[C@@H](NC(=O)OC(C)(C)C)C1 [Compound 147]
< 50 nM
